# Experimental protocol: Clinical test in humans, three 30-min i.v. infusions 8 hours apart, plasma PK
# Format: in vivo
# Recorded conditions: human, in vivo, iv, three 30-min i.v. infusions 8 h apart, 200 μg/kg each, GM, read-out: AUC0-tau1
Ends that are not written are not given here.
Measured metric: AUC (ng·h/mL)

> print(dat)
                                  substance  measured.metric  number
1  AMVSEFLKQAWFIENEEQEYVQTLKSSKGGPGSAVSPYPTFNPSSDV-NH2 [Peptide 1]              AUC    2590

* * *

# Experimental protocol: Clinical test in humans, single 30-min i.v. infusion, plasma PK
# Type: in vivo
# Recorded conditions: in vivo, iv, 200 ug/kg; human, single 30-min i.v. infusion 200 μg/kg, GM
Ends that are not written are not given here.
Measured metric: Tmax (min)

> print(dat)
                                  substance  measured.metric  unit.label  number
1  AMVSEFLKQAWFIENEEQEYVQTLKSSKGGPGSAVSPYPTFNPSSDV-NH2 [Peptide 1]             Tmax         min      30

Value source: patent US20250345392A1
